# Tested on: Fibroblast
# test_summary: Multiplex assay against human fibroblast
# Format: toxicity, cell-based
# experimental_conditions: 24 h, 1 µM, compound concentration 1 uM, replicate 1
Label 1 for high-side Population Healthy Nuclei (%) (at or above 40%) and 0 for low-side Population Healthy Nuclei (%) (below it).

Query: Determine whether this compound has Population Healthy Nuclei (%) no lower than 40%: `Cn1nc(C(F)(F)F)cc1-c1cnc(N2CCc3cc(S(=O)(=O)Nc4c(F)cc(Cl)cc4F)cc(N4CCCC4=O)c32)nc1`
Reply: 1

Query: Determine whether this compound has Population Healthy Nuclei (%) no lower than 40%: `Cl.O=c1c2cccn2c2ccccc2n1CCCN1CCC(c2ccc(Cl)cc2)CC1`
Reply: 1

Query: Determine whether this compound has Population Healthy Nuclei (%) no lower than 40%: `CCCS(=O)(=O)Nc1ccc(F)c(C(=O)c2c[nH]c3ncc(Cl)cc23)c1F`
Reply: 1

Query: Determine whether this compound has Population Healthy Nuclei (%) no lower than 40%: `CNc1cc(Oc2cc(C(=O)Nc3cc(N4CCN(C)CC4)cc(C(F)(F)F)c3)ccc2C)ncn1`
Reply: 0

Query: Determine whether this compound has Population Healthy Nuclei (%) no lower than 40%: `O=C(Nc1ccc(-n2nc(-c3cccnc3)cc2C(F)(F)F)cn1)c1ccc(-c2ccccc2)c(F)c1`
Reply: 0

Query: Determine whether this compound has Population Healthy Nuclei (%) no lower than 40%: `CCN1CCN(Cc2ccc(Nc3ncc(F)c(-c4cc(F)c5nc(C)n(C(C)C)c5c4)n3)nc2)CC1.CS(=O)(=O)O`
Reply: 1

Query: Determine whether this compound has Population Healthy Nuclei (%) no lower than 40%: `O=C(Cc1ccc(-c2ccc(OCCN3CCOCC3)cc2)cn1)NCc1ccccc1`
Reply: 1

Query: Determine whether this compound has Population Healthy Nuclei (%) no lower than 40%: CCOC(=O)c1c(C)[nH]c2ccc3c(c12)CN1CCc2cc(OC)ccc2C1O3 (stereo unspecified)
Reply: 1

Query: Determine whether this compound has Population Healthy Nuclei (%) no lower than 40%: `CCOc1cc(C(=O)N2CCC(N3CCN(C)CC3)CC2)ccc1Nc1ncc2c(n1)N(C1CCCC1)c1ccccc1C(=O)N2C`
Reply: 1

Query: Determine whether this compound has Population Healthy Nuclei (%) no lower than 40%: `CN[C@@H]1C[C@H]2O[C@@](C)([C@@H]1OC)n1c3ccccc3c3c4c(c5c6ccccc6n2c5c31)C(=O)NC4`
Reply: 0

Query: Determine whether this compound has Population Healthy Nuclei (%) no lower than 40%: `COC(=N)c1nc2ccc3ncnc(Nc4ccc(OC)cc4F)c3c2s1`
Reply: 1

Query: Determine whether this compound has Population Healthy Nuclei (%) no lower than 40%: CN1CCC(=C2c3ccccc3CC(=O)c3sccc32)CC1.O=C(O)/C=C/C(=O)O [KETOTIFEN FUMARATE]
Reply: 1

Query: Determine whether this compound has Population Healthy Nuclei (%) no lower than 40%: `CN1CCN(C(=O)C(C)(C)c2ccc(C(=O)Nc3cn4cc(-c5cc(C(C)(C)C)cc(C(C)(C)C)c5)ccc4n3)cc2)CC1`
Reply: 1

Query: Determine whether this compound has Population Healthy Nuclei (%) no lower than 40%: `O=C(Nc1ccc(Cl)cc1)Nc1cccc(-c2cccc(N3CCCC3)n2)c1`
Reply: 1

Query: Determine whether this compound has Population Healthy Nuclei (%) no lower than 40%: CN(C)C(=O)C(CCN1CCC(O)(c2ccc(Cl)cc2)CC1)(c1ccccc1)c1ccccc1.Cl [LOPERAMIDE HYDROCHLORIDE]
Reply: 1

Values were extracted from ChEMBL document CHEMBL4689842.
